- Measurement description: growth inhibition of non-replicating M. tuberculosis (AID 488890);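 further: plate controls were DMSO cells for no effect and high antibiotic wells for full effect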
- Condition parameters: Mycobacterium tuberculosis non-replicating, at 25 µM, stronger effect = higher value
Among all 320,000 compounds or so, about 1,300 (0.41%) were called active. Another 3% or so got no clear call; they are omitted. Not all results are given here. Potency and affinity values are given separately.
Measure: inhibition

Take a look at these entries with their results.
CCOc1ccc(NC(=O)CSc2nc(-c3cccs3)cc(C(F)(F)F)n2)c([N+](=O)[O-])c1    7.92%
CCn1ncc(C(=O)Nc2ccc(F)cc2)c1C    -7.3%

Reported inhibition for COCC1CCCCN1Cc1cn(-c2ccccc2)nc1-c1ccc2c(c1)OCO2 (stereo not given) : what is it?
0.23%

* * *

Listed here: items and their measured inhibition.
- Measurement description: growth inhibition of non-replicating M. tuberculosis (AID 488890);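 further: plate controls were DMSO cells for no effect and high antibiotic wells for full effect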
- Condition parameters: Mycobacterium tuberculosis non-replicating, at 25 µM, stronger effect = higher value
Screen size: about 320,000 compounds; about 1,300 (0.41%) were called active. Roughly 3% stayed inconclusive and do not appear here. Only a sample is shown. Potency and affinity values are given separately.
Use % as the unit, but write only the number.

CC(C)(C)c1ccc2c(c1)OC(C(=O)N/N=C\c1ccncc1)CO2 (stereo not given)    10.4
CCN1CCN(c2nc(N)c([N+](=O)[O-])c(Nc3cccc(C)c3)n2)CC1    71.8
CC(=O)N1CCN(c2ccccc2NC(=O)COc2cc(C)ccc2C(C)C)CC1    34.3
Cc1nn(C)c(Oc2ccc(Cl)cc2)c1C(=O)O    5.18
Cc1cccc(Cn2c(N3CCN(C)CC3)nc3c2c(=O)n(C)c(=O)n3C)c1    -18

I am curious: what inhibition value has been reported for CC(C)(C)c1ccc2c(c1)OC(C(=O)N/N=C/c1ccc([N+](=O)[O-])o1)CO2 (stereo not given) ?
77.1

Would you mind doing O=C(N/N=C/c1c[nH]c2ccccc12)C1COc2ccccc2O1 (stereo not given) as well?
26.6

Now try O=C(N/N=C\c1ccc(O)c([N+](=O)[O-])c1)C1COc2ccccc2O1 (stereo not given) .
57

Let us now turn to CN(Cc1ccc(F)cc1)C(=O)C(Cc1ccccc1)NC(=O)c1ccccc1 (stereo not given)
-6.89

Query C/C(=N\NC(=O)C1COc2ccccc2O1)c1ccc(Cl)s1 (stereo not given) next
76

* * *

Measured inhibition of individual entries
- Measurement description: growth inhibition of non-replicating M. tuberculosis (AID 488890);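 further: plate controls were DMSO cells for no effect and high antibiotic wells for full effect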
- Condition parameters: Mycobacterium tuberculosis non-replicating, at 25 µM, stronger effect = higher value
The whole screen tested about 320,000 compounds, of which about 1,300 (0.41%) were called active. About 3% were inconclusive and are not listed. A selection follows. Results with a measured potency or affinity are listed apart.
Enter your answer as a number in %; do not include the unit.

Cc1ccc(Nc2c(-c3ccco3)nc3ccccn23)cc1    43.3
CCCCCCC1CC(CC(=O)Nc2ccc([N+](=O)[O-])cc2)C(=O)O1 (stereo unspecified)    46
c1ccc(Nc2c(-c3ccco3)nc3ccccn23)cc1    43.1
O=C(NCc1ccccc1)c1ccco1    64.3

Value lookup for inhibition; key = COc1ccc(/C=N\Nc2ccc([N+](=O)[O-])cc2[N+](=O)[O-])c(C(=O)O)c1OC
39.2

Now try CN(Cc1cnn(C)c1)Cc1nc(COc2ccccc2)no1 .
12.5
